What TGI was measured for each of the following?
test system: IGROV1 ovarian; assay: NCI tumour cell line growth inhibition, 48 h

response.value for O=C(O)/C(=C/c1ccccc1)c1ccccc1 (field: TGI) = > 100 µM

response.value for FC(F)(F)c1ccc2c(c1)nc(-c1ccccc1)n2CC1CCCN2CCCCC12 (stereo unspecified) (field: TGI) = 50.4 µM

response.value for CCOc1ccccc1/C=C(/C#N)C(N)=O (field: TGI) = > 100 µM

response.value for FC(F)(F)c1cccc(C=NC23CC4CC(CC(C4)C2)C3)c1 (field: TGI) = > 100 µM

response.value for Cc1cc(=O)[nH]c(-n2[nH]c3c(c2=O)CCCC3)n1 (field: TGI) = > 100 µM

response.value for C#CCCOC(=O)CC1=C(C)/C(=C/c2ccc(S(C)=O)cc2)c2ccc(F)cc21 (stereo unspecified) (field: TGI) = 83.1 µM

====

test system: 786-0 renal; experiment: NCI tumour cell line growth inhibition, 48 h
What TGI was measured for each of the following?

response.value for Cn1c(=O)c2[nH]c(CCCCc3nc4ccccc4[nH]3)nc2n(C)c1=O (field: TGI) = > 100 µM

response.value for COC(=O)N/N=C(/CC1(O)C(=O)Nc2ccc([N+](=O)[O-])cc21)c1ccccc1 (stereo not given) (field: TGI) = > 54.4 µM

response.value for O=c1cn[nH]c2nc3ccccc3n12 (field: TGI) = > 100 µM

response.value for CSc1ccc(C2=NN(c3ccccc3)C(c3ccc(-c4cc(Cl)c(Cl)cc4Cl)o3)C2)cc1 (stereo not given) (field: TGI) = > 100 µM

response.value for C[Si](C)(C)CNC(=O)OCc1ccccc1 (field: TGI) = > 100 µM

====

What TGI was measured for each of the following?
system: UO-31 renal; experiment: NCI tumour cell line growth inhibition, 48 h

response.value for CC1COC(c2cn[nH]c2C(N)=O)C1O (stereo not drawn) (field: TGI) = > 100 µM

response.value for Cn1c(=O)c2[nH]c(CCCCc3nc4ccccc4[nH]3)nc2n(C)c1=O (field: TGI) = > 100 µM

response.value for CN(C)C1C(CO)OC(n2cnc3c(N)ncnc32)C1O (stereo not drawn) (field: TGI) = > 100 µM

====

tested on: ACHN renal; test: NCI tumour cell line growth inhibition, 48 h; in the data active = GI50 below about 0.43 µM; inactive = the rest
I would appreciate it if you answered using one of these outcomes: active, inactive

Recorded test outcome, item COc1cc(/C=C/c2cc(/C=C/c3ccc(O)c(OC)c3)n(C(=O)Cc3ccccc3)n2)ccc1O
active

Recorded test outcome, item CC(=O)c1ccc(Nc2cc(-n3nnc4ccccc43)nc3ccccc23)cc1
inactive

Recorded test outcome, item Cc1cc2c(cc1O)[nH]c1cc3c(cc12)C=CC(C)(C)O3
inactive

Recorded test outcome, item O=C(c1ccc(Oc2ccccc2)cc1Cl)c1c[nH]c2ncnc(N[C@@H]3CC[C@@H](CO)OC3)c12
active

Recorded test outcome, item CC(c1ccccc1)N1C(=O)CSC1=S (centres undefined)
inactive

Recorded test outcome, item CCOC(=O)c1cc(C(=O)c2cc(OC)cc(OC)c2)n2nc(C)ccc12
inactive

Recorded test outcome, item CCC(=O)OCC1OC(n2cnc3c(=S)nc(N)[nH]c32)C(OC(=O)CC)C1OC(=O)CC (centres undefined)
inactive

Recorded test outcome, item O=[N+]([O-])c1cc([N+](=O)[O-])c(NN=C(c2ccc(O)cc2)c2ccc(O)cc2)cc1Cl
inactive

Recorded test outcome, item CCCCc1ccc(NS(=O)(=O)c2cc3c4c(c2)CCN4C(=O)CC3)cc1
inactive

====

tested on: OVCAR-3 ovarian; experiment: NCI tumour cell line growth inhibition, 48 h
What TGI was measured for each of the following?

response.value for Cc1cn(CC2=NCC(O)CN2)c(=O)[nH]c1=O (stereo unspecified) (field: TGI) = > 100 µM

response.value for CCn1cc(C(=O)O)c(=O)c2ccc(C)nc21 (field: TGI) = > 100 µM

response.value for CCOc1cc(NC(C)=O)ccc1C(=O)NNS(=O)(=O)c1ccc(Cl)cc1Cl (field: TGI) = > 50 µM

response.value for Cc1cccc(C)c1NC(=O)CCC(=O)NNc1nnc(C)n1N (field: TGI) = > 100 µM

response.value for CCOC(=O)c1c(Sc2ccc([N+](=O)[O-])cc2[N+](=O)[O-])nc2c3ccccc3ccn12 (field: TGI) = > 100 µM

response.value for C1CSC2=C(S1)SC1=C(S2)SC(=C2SC3=C(SC4=C(SCCS4)S3)S2)S1 (field: TGI) = > 100 µM

====

What TGI was measured for each of the following?
system: UACC-62 melanoma; experiment: NCI tumour cell line growth inhibition, 48 h

response.value for COc1cc2c(c(OC)c1OC)CCNC2C1=C(O)COC1=O (stereo not given) (field: TGI) = > 100 µM

response.value for O=C(CCC(=O)Nc1ccc(Cl)c(Cl)c1)CC(=O)c1ccc(Cl)cc1 (field: TGI) = > 100 µM

response.value for Nc1cnc(Nc2cccc3ccccc23)o1 (field: TGI) = > 10 µM

response.value for CC(C#N)NCc1ccc(C(C)NC(C)C#N)cc1 (stereo not given) (field: TGI) = > 100 µM

response.value for O=C(O)C1(Nc2ccc(Cl)cc2)CCCC1 (field: TGI) = > 100 µM

====

What TGI was measured for each of the following?
system: NCI-H522 lung; assay: NCI tumour cell line growth inhibition, 48 h
// return numeric value only (unit: µM, not printed)

response.value for COc1cccc2c1C(=O)c1c(O)c3c(c(O)c1C2=O)C[C@@](O)(C(=O)CO)C[C@@H]3OC1CC(N(C)C)C(O)C(C)O1 (some centres not stated) (field: TGI) = 0.0922

response.value for Oc1ccc(OCCOc2ccc(O)cc2)cc1 (field: TGI) = 55.9

response.value for CN(C)CCCNc1nc2ccccc2c2c(=O)c3cc(F)ccc3sc12 (field: TGI) = 3.98

response.value for COc1cc(C(=O)/C=C/c2c(-c3cccs3)nc3sccn23)cc(OC)c1OC (field: TGI) = 0.866

response.value for O=c1c(Nc2ccccc2)cn(CCOc2ccccc2)c(=O)n1CCOc1ccccc1 (field: TGI) = 99.5

response.value for CCC(=O)OCC1OC(n2cnc3c(=S)nc(N)[nH]c32)C(OC(=O)CC)C1OC(=O)CC (configuration not stated) (field: TGI) = 18.6

response.value for COC(=O)C1=C(C(=O)OC)SC2(S1)C1=C(CCC1)SC(C(=O)OC)=C2C(=O)OC (field: TGI) = 9.08

response.value for Cc1cccc(NS(=O)(=O)c2ccc3c(c2)OCCOCCOCCOCCO3)c1 (field: TGI) = 65.5

====

tested on: UO-31 renal; assay: NCI tumour cell line growth inhibition, 48 h
test-readout: TGI (µM)
// return numeric value only (unit: µM, not printed)

response.value for CCOC(=O)c1c(NNc2ccccc2)nc2ccccc2c1-c1ccccc1 (field: TGI) = 66.3

response.value for CC[C@@]1(O)C(=O)OCc2c1cc1n(c2=O)Cc2c-1nc1ccccc1c2/C=N/NC(=O)C[N+](C)(C)C (field: TGI) = 9.72

response.value for CCOC(=O)CCC(C(=O)OCC)n1nc2ccc(Nc3c(C)[n+]([O-])c4ccc(Cl)cc4[n+]3[O-])cc2n1 (centres undefined) (field: TGI) = 35.6

response.value for COc1ccc(/C=C/C(=O)c2c(O)c(C)c(O)c3c2OC2=CC(O)=C(C(C)=O)C(=O)[C@]23C)cc1 (field: TGI) = 10.6

response.value for COc1cc(Nc2ncc3c(C)nc(-c4cccc(C(F)(F)F)c4)n3n2)cc(OC)c1OC (field: TGI) = 6.18

response.value for CCC(=O)OCC1OC(n2cnc3c(=S)nc(N)[nH]c32)C(OC(=O)CC)C1OC(=O)CC (centres undefined) (field: TGI) = 54.2

====

system: OVCAR-4 ovarian; assay: NCI tumour cell line growth inhibition, 48 h
What TGI was measured for each of the following?

Result for CCCCN1C=CCN(CCCC)C1 , tested on OVCAR-4 ovarian, TGI: > 100 µM

Result for CC1COC(c2cn[nH]c2C(N)=O)C1O (stereo not drawn) , tested on OVCAR-4 ovarian, TGI: > 100 µM

Result for CN1N(c2ccccc2)C(=O)C2=NC=C(C(=O)c3ccccc3)C(=N)C21C (stereo not drawn) , tested on OVCAR-4 ovarian, TGI: > 100 µM

====

test system: EKVX NSCLC; experiment: NCI tumour cell line growth inhibition, 48 h
test-readout: TGI

response.value for Clc1ccc(Cc2nc3cc(Cl)c(Cl)cc3n2CC2CCCN3CCCCC23)cc1Cl (stereo unspecified) (field: TGI) = 11.1 µM

response.value for O=c1cn[nH]c2nc3ccccc3n12 (field: TGI) = > 100 µM

response.value for C#CCCOC(=O)CC1=C(C)/C(=C/c2ccc(S(C)=O)cc2)c2ccc(F)cc21 (stereo unspecified) (field: TGI) = 71.9 µM

response.value for COC(=O)[C@]1(C)CC[C@]2(C)CC[C@]3(C)C4[C@H]5Oc6c(cc7c(c6C)CCC6[C@@]7(C)CC[C@@]7(C)C8[C@](C)(CCC[C@@]8(C)C(=O)OC)CC[C@]67C)O[C@H]5c5c(cc6c(c5C)O[C@@]5(C)C7=CC=C8[C@@](C)(CC[C@@]9(C)[C@@H]%10C[C@](C)(C(=O)OC)CC[C@]%10(C)CC[C@]89C)C7=CC(=O)[C@@]5(O)O6)[C@]4(C)CC[C@@]3(C)C2C1 (stereo partly specified) (field: TGI) = 10.5 µM

response.value for CC(=O)O[C@]1(C)CCC2C(C)C(=O)OC2C2C(C)[C@@H](O)CC21 (stereo partly specified) (field: TGI) = > 100 µM

response.value for COc1cc(C(=O)Nc2cccc3ccccc23)c(Br)c(OC)c1OC (field: TGI) = > 100 µM

response.value for COc1cccc(-c2nc(-c3cnccn3)n(C3OC(CO)C(O)C3O)n2)c1 (stereo unspecified) (field: TGI) = > 100 µM

response.value for Clc1ccc(-c2nc3ccc(Cl)cc3[nH]2)cc1 (field: TGI) = > 100 µM

response.value for O=C(CCCBr)Nc1ccccc1C#C/C=C\C#Cc1ccccc1C(F)(F)F (field: TGI) = > 50 µM

response.value for FC(F)(F)c1ccc2c(c1)nc(-c1ccccc1)n2CC1CCCN2CCCCC12 (stereo unspecified) (field: TGI) = > 100 µM

response.value for C=CCN1C(=O)CNC1=S (field: TGI) = > 100 µM

response.value for Cc1cccc(/C=N/NC(=S)Nc2ccc(Cl)cc2)n1 (field: TGI) = 23.1 µM

response.value for O=C(O)[C@@H](NS(=O)(=O)c1ccc(F)cc1)c1ccccc1 (field: TGI) = > 100 µM

response.value for CCOC(=O)C1=C(C#N)S(=O)(=O)c2c(oc(C)c2C)N1 (field: TGI) = > 100 µM

response.value for COC(=O)/C(C#N)=C1\CCC(OC)N1 (stereo unspecified) (field: TGI) = > 100 µM

response.value for Cc1ccc(-c2cc(=O)c3cc4c(cc3[nH]2)OCO4)cc1 (field: TGI) = > 100 µM

The origin of these recorded values is PubChem BioAssay (NCI).
